# Kd values compiled below
# experimental-target: BMP-2-inducible protein kinase (Homo sapiens, UniProt Q9NSY1); also: in the data inactive means no Kd found up to 30 µM
# Sequence (Q9NSY1 whole entry): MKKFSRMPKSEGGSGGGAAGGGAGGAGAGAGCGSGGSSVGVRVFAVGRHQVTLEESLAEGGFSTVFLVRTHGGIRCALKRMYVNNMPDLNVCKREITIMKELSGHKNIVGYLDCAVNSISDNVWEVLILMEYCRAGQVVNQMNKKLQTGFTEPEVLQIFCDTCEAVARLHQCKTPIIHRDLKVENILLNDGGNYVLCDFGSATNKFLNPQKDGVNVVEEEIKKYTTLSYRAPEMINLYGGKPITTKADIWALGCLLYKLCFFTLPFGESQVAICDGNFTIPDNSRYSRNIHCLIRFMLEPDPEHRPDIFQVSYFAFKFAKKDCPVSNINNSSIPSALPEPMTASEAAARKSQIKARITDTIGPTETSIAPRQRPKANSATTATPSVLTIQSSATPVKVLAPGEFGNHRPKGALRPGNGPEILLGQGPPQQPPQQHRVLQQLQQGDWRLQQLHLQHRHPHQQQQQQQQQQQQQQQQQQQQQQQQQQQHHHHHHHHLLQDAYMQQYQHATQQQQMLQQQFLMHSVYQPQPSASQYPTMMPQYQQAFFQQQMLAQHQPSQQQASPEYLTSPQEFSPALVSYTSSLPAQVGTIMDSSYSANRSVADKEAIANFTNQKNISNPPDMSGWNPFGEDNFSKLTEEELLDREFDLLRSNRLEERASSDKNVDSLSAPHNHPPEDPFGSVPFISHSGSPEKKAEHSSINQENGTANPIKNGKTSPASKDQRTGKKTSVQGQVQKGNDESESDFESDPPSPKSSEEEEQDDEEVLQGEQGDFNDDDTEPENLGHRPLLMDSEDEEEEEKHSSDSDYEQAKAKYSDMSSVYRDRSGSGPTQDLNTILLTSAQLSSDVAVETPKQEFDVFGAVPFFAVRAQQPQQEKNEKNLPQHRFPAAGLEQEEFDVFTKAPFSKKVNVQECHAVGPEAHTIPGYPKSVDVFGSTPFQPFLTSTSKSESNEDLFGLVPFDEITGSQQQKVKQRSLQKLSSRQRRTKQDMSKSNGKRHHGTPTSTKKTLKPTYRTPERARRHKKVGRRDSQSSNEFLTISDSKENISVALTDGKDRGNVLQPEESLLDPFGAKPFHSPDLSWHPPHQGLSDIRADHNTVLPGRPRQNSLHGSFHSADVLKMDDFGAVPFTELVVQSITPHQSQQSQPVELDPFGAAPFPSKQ
The source made the active and inactive calls.

Consider the worked cases shown below.
N[C@@H]1CCCN(c2c(/C=C3\SC(=O)NC3=O)cccc2-c2ccccc2)C1 :: > 30 µM (inactive)
O=C(c1ccc(F)c(F)c1Nc1ccc(I)cc1F)N1CC(O)([C@@H]2CCCCN2)C1 :: > 30 µM (inactive)
COc1cc(CCc2cc(NC(=O)c3ccc(N4C[C@@H](C)N[C@@H](C)C4)cc3)n[nH]2)cc(OC)c1 :: > 30 µM (inactive)
CN1N=C(N)c2cn([C@@H]3O[C@H](COP(=O)(O)O)[C@@H](O)[C@H]3O)c3ncnc1c23 [TRICIRIBINE PHOSPHATE] :: > 30 µM (inactive)
Cc1nc(N)sc1-c1ccnc(Nc2ccc(N3CCOCC3)cc2)n1 :: 0.007 µM (active)
Cc1ccc(-n2nc(C(C)(C)C)cc2NC(=O)NCc2cc(F)ccc2Oc2ccc3c(cnn3CCO)c2)cc1 :: > 30 µM (inactive)

The molecule listed as Cc1cc([C@@H](C)Nc2ccccc2C(=O)O)c2nc(N3CCOCC3)cc(=O)n2c1 has a reported Kd of > 30 µM (inactive)

The molecule listed as CNC(=O)CN1CCC(Oc2cc3c(Nc4cccc(Cl)c4F)ncnc3cc2OC)CC1 has a reported Kd of > 30 µM (inactive)

The molecule listed as Cc1cc(Nc2cc(N3CCN(C)CC3)nc(/C=C/c3ccccc3)n2)n[nH]1 has a reported Kd of 1.49 µM (active)

====

# experimental-target: Dual specificity protein kinase CLK1 (Homo sapiens, UniProt P49759); also: in the data inactive means no Kd found up to 30 µM
# Sequence (P49759 whole entry): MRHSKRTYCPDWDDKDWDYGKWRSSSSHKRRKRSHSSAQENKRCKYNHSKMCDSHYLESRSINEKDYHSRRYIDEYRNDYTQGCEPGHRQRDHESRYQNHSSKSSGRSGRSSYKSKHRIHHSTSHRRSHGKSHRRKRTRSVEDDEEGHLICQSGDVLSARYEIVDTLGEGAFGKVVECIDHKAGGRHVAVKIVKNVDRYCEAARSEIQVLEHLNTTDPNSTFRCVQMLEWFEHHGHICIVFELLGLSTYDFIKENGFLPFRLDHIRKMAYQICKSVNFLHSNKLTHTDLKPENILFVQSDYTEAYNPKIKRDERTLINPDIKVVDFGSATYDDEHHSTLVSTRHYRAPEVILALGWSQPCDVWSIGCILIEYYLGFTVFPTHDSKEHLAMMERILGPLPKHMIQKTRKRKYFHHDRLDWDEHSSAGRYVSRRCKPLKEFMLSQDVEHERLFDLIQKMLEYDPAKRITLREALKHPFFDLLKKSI
Active and inactive are the calls of the source.
Field 'call' accepts t = active, f = inactive

Solved cases (5 shown):
Cn1cc(-c2ccc(F)c(C(F)(F)F)c2)nc1C1CCN(c2ncnc3[nH]ncc23)CC1 :: f
CNS(=O)(=O)Nc1nccc(Cc2c(C)c3ccc(Oc4ncccn4)cc3oc2=O)c1F :: f
CCc1cnn2c(NCc3ccc[n+]([O-])c3)cc(N3CCCC[C@H]3CCO)nc12 :: t
CN1CCC(CNc2ccc3ncc(-c4cccc(OC(F)(F)F)c4)n3n2)CC1 :: f
OCCn1cc(-c2cnc3nnn(Cc4ccc5ncccc5c4)c3n2)cn1 :: f

Now examine the next entry.
Short answer needed: outcome of this test for CN1CCC(COc2cnc(-c3cccc(Cn4nc(-c5cccc(C#N)c5)ccc4=O)c3)nc2)CC1 ?
f

====

# experimental-target: Proto-oncogene tyrosine-protein kinase Src (Homo sapiens, UniProt P12931); also: in the data inactive means no Kd found up to 30 µM
# Sequence (P12931 2-536 limits assumed): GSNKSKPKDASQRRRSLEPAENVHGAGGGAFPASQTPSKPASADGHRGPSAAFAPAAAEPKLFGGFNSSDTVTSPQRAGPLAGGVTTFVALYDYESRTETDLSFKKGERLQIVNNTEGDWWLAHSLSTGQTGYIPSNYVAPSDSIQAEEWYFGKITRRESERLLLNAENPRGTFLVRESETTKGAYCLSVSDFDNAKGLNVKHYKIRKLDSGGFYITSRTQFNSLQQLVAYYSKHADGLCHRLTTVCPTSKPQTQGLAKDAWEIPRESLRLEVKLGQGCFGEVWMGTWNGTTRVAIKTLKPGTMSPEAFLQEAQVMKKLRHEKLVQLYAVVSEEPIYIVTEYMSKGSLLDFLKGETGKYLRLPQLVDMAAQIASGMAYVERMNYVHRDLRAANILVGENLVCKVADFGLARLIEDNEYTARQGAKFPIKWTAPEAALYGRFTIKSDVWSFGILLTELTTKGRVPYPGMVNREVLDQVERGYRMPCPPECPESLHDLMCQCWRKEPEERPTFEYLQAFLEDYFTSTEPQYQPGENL
The source made the active and inactive calls.
Field 'call' accepts 1 = active, -1 = inactive

O=C(O)[C@]1(Cc2cccc(Nc3nccs3)n2)CC[C@@H](Oc2cccc(Cl)c2F)CC1 :: -1
CC[C@@H]1C(=O)N(C)c2cnc(Nc3ccc(C(=O)N[C@H]4CC[C@H](N5CCN(CC6CC6)CC5)CC4)cc3OC)nc2N1C(C)C :: -1
Cn1cc(-c2ccc3nnc(C(F)(F)c4ccc5ncccc5c4)n3n2)cn1 :: -1
O=C(Nc1ccc(-c2ccnc(Nc3ccc(N4CCOCC4)cc3)n2)cc1)C1CCCN1 (centres undefined) :: -1
N[C@@H]1CCCN(c2c(/C=C3\SC(=O)NC3=O)cccc2-c2ccccc2)C1 :: -1
Cc1cc(-c2cc(O)ccc2Cl)cc2nnc(Nc3ccc(OCCN4CCCC4)cc3)nc12 :: 1

Short answer needed: outcome of this test for COC(=O)N[C@@H](C)CNc1nccc(-c2cn(C(C)C)nc2-c2cc(Cl)cc(NS(C)(=O)=O)c2F)n1 ?
-1

Short answer needed: outcome of this test for CCS(=O)(=O)N1CC(CC#N)(n2cc(-c3ncnc4[nH]ccc34)cn2)C1 ?
-1

Short answer needed: outcome of this test for COc1cc(OC)c(/C=C/S(=O)(=O)Cc2ccc(OC)c(NCC(=O)O)c2)c(OC)c1 ?
-1

Source: ChEMBL document CHEMBL3991601
